- Target of assay: PKD (PKD1) (Homo sapiens, UniProt Q15139)
- Sequence (Q15139 whole entry): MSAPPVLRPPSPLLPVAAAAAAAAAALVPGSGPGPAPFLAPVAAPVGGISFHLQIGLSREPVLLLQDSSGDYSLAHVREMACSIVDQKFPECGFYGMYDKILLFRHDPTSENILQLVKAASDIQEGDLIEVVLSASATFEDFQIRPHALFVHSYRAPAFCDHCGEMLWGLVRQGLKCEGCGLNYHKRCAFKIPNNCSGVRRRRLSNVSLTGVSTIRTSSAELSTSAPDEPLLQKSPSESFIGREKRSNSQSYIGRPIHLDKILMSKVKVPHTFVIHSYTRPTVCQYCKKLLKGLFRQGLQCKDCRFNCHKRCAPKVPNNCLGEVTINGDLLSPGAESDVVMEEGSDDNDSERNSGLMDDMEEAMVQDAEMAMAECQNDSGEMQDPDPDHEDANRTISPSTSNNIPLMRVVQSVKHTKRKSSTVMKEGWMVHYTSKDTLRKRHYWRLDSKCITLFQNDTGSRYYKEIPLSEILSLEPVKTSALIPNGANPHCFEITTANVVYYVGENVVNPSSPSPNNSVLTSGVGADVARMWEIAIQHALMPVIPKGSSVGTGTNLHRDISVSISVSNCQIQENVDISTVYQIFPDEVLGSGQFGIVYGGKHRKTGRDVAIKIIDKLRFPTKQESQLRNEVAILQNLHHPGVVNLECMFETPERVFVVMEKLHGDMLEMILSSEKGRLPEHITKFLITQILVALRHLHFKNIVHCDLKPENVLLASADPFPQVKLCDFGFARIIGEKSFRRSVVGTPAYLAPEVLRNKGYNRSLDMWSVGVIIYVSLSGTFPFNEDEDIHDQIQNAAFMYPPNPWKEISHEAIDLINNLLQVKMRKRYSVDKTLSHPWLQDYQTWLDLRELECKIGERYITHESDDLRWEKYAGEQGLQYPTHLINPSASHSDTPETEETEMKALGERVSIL
- Assay explanation: in vitro kinase assay with purified recombinant kinase; also pS916 inhibition in PANC1 and HeLa cells
Measured parameter: IC50 (nM)

{"columns": ["Chemical string", "Target of assay", "Measured parameter", "Measurement"],
 "data": [
  ["CC[C@@H](N)CNc1ccnc(-c2cc(-c3cnn(C)c3)ccc2O)n1", "PKD (PKD1) (Homo sapiens, UniProt Q15139)", "IC50", 1]
]}
